experiment: Solubility test in PBS (saturated solution, HPLC external standard); assay type: physicochemical; conditions: PBS, 37 °C, aqueous buffer, thermodynamic from solid, shaking at 37 °C for 4 h, supernatant by HPLC
Observable: solubility at 4 h (µg/mL)
Numbers only, in µg/mL.

Inquiry: Param item = C=CCc1ccc(O)c(-c2ccc(O)c(CC=C)c2)c1 [honokiol crystal form B] ; retrieve measured solubility at 4 h.
Reply text: 43.7
